experimental.system: T1, mStau2 dsRBD2 (Mus musculus, UniProt Q8CJ67 95-181)
T1 sequence: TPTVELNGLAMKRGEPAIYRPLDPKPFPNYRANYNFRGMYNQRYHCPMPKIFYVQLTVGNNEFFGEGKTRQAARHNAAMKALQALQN
assay.text: SPR; Hill n 1.3; SPR: HBS-EP (10 mM HEPES pH 7.4, 150 mM NaCl, 3 mM EDTA, 0.005% P20); EMSA: 5 nM RNA, protein buffer (40 mM Bis-Tris pH 7, 150 mM NaCl, 2 mM DTT presumed), 4% glycerol, 30 ug/mL yeast tRNA, RT; NMR: 150 mM NaCl, 20 mM Na phosphate pH 7.0, 5 mM DTT, 298 K
test.settings: protein: recombinant; label: 5' 32P (EMSA); biotin (SPR); hairpin, 18 bp stem
measurement.label: Kd (nM)
Report the figure in nM without appending any unit label.

Noted for GGUAUAUACAUGCACAUGCAAUUUGUGUAUGUGUAUGUAUAUA (structured_RNA) [SRS2+5] : its Kd reads 650
